Measured values drawn from patent US20260365734 for this set.

System Under Test: human PD-L1 (cell surface) (human, UniProt Q9NZQ7)
Sequence (Q9NZQ7 19-238): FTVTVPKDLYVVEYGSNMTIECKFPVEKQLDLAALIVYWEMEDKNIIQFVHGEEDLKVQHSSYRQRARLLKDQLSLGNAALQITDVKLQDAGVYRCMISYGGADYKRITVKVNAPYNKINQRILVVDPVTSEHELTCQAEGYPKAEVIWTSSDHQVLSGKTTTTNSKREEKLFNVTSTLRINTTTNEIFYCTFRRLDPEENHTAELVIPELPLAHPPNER
Test Method Notes: FACS, T24 cells
Provide the recorded pEC50 for the entries that follow.
Answers are plain numbers, as −log10 of the molar value.

# batch size: 3; output pEC50 per entry
1. 1F4-hv7-NT (antibody, V domains shown) VH: QVQLVESGGGLVKPGGSLRLSCAASGFSASDVVMAWYRQAPGKQREFVANIAASSTTRYADSVKGRFTISRDNAKNSLYLQMNSLRAEDTAVYYCNALVWTGSSYNNWGQGTQVTVSS
2. 4E2-hv2-NT (antibody, V domains shown) VH: EVQLVESGGGLVKPGGSLRLSCAASGFSAGDVVMAWYRQAPGKQREFVSNIAASSTTRYADSVKGRFTISRDNAKNSLYLQMNSLRAEDTAVYYCNALVWTGSSYNNWGQGTQVTVSS
3. 4D2-hv1-NT (antibody, V domains shown) VH: QVQLVESGGGLVKPGGSLRLSCAASGFSASDVVMAWYRQAPGKQREFVANLGASSTTRYADSVKGRFTISRDNAKNSLYLQMNSLRAEDTAVYYCNALVWTGSSYNNWGQGTQVTVSS

Result ::
1. 10.33
2. 10.33
3. 10.37
